Tested on: MDA-MB-231
TEST SUMMARY: NCI tumour cell line growth inhibition, 48 h
The source made the active and inactive calls. Cut-off read from the data, not from the text of the source: active = GI50 up to about 1.1 µM and inactive = higher.
Outcome codes: true for active, false for inactive

O=C1C2CC[C@@H]3C(=O)C(Cl)(Cl)[C@@H]3CCC2C1(Cl)Cl (some centres not stated) ... false
CO[P@@]1(=O)O[C@@H](c2ccccc2)[C@H](O)[C@@]1(O)c1ccccc1 ... false
CC1CCCCN1CC(=O)c1ccc2c(c1)Sc1ccccc1O2 (configuration not stated) ... false
CSc1nc(NC2CCCC2)c2cc[nH]c2n1 ... false
O=C(NC1=C(Cl)C(=O)c2ccccc2C1=O)c1ccc(F)cc1 ... false
O=C(O)CC1NC(/C(=C/c2ccccc2)NC(=O)c2ccccc2)OC1=O (configuration not stated) ... false
COc1c2c(cc3c1C1(O)Cc4ccc5c(c4C[N+]1(C)CC3)OCO5)OCO2 (configuration not stated) ... false
Nc1ncc2c(n1)-c1ccccc1OC2NC1CC1 (configuration not stated) ... false
CCOC(=O)c1ccc(N(CCOS(C)(=O)=O)CCOS(C)(=O)=O)cc1 ... false
COP(=O)(/C=C/C(NC(=O)C(Cl)(Cl)Cl)c1ccccc1)OC (configuration not stated) ... false
CCOc1ccc(/C=C2\NC(=S)N(/C=C3\C(=O)Oc4ccccc4C3=O)C2=O)cc1 ... false
CCOC(=O)C1C(c2ccc(OC)cc2)c2c(n[nH]c2O)CC1(O)OCC (configuration not stated) ... false
CC(=O)OCC1OC(n2ncc(=O)[nH]c2=O)C(OC(C)=O)C1OC(C)=O (configuration not stated) ... false
C=CCOn1c(C=C)nc2c(C)cccc21 ... false
CC(=O)Nc1ccc(Nc2cc(=O)n(C)c(=O)[nH]2)cc1 ... false
CCCCCCOc1ccc(NC2=C(Cl)C(=O)c3c(O)ccc(O)c3C2=O)cc1 ... false
COc1ccc(CCc2cc(OC)c(OC)c(OC)c2)cc1 ... true
O=C(NNC(=S)Nc1cccc(Cl)c1)c1cc(-c2ccccc2)nc2ccccc12 ... false
CCn1c2ccc(C(=O)CCCN(C)C)cc2c2cc(C(=O)CCCN(C)C)ccc21 ... true
Sc1ncc2[nH]nnc2n1 ... false
O=c1[nH]c(=O)n(C2CC(O)C(CO)O2)c2nc3ccc4cc5ccccc5cc4c3nc12 (configuration not stated) ... false
Cc1ccc(S(=O)(=O)N2CCN(CCN(C)CCN3CCN(S(=O)(=O)c4ccc(C)cc4)CC3)CC2)cc1 ... false
